Each recorded value in this set is attributed to patent US20220195015A1.

# systemName: SARS-CoV-2 receptor binding domain (RBD), wild type (SARS-CoV-2, UniProt P0DTC2 319-539)
# methodNotes: ELISA, RBD protein coated, mAb titrated
measurementType: EC50 (ng/mL)
Please reply with the bare figure in ng/mL and do not write the unit itself.

Please review the following examples before continuing.
Report EC50 for C083 (antibody, V domains shown) VH: EVQLVESGGGLVKPGGSLRLSCAASGFTFSSYSMNWVRQAPGKGLEWVSSISSSTSYIYYADSVKGRFTISRDNAKNSLYLQMNSLRAEDTAVYYCARERYGDNWGQGTLVTVSS VL: QLVLTQSPSASASLGASVKLTCTLSSGHSSYAIAWHQQQPEKGPRYLMSLNSDGSHSKGDGIPDRFSGSSSGAERYLTISSLQSEDEADYYCQTWGPWVFGGGTKLTVL please. 25.1

What does the record list as EC50 for C032 (antibody, V domains shown) VH: EVQLVQSGAEVKKPGESLKISCKGSGYSFTSYWIGWVRQMPGKGLEWMGIIYPGDSDTRYSPSFQGQVTISADKSISTAYLQWSSLKASDTAMYYCARGVAVDWYFDLWGRGTLVTVSS VL: QSVLTQPPSVSGAPGQRVTISCTGSSSNIGAGYDVHWYQQLPGTAPKLLIYGNSNRPSGVPDRFSGSKSGTSASLAITGLQAEDEADYYCQSYDSSLSALYVFGTGTKVTVL ? 17.3

Given the binder C059 (antibody, V domains shown) VH: QVQLVQSGAEVKKPGASIKVSCKASGYTFTDYSMHWVRQAPGQGLEWMGWINPNSGGTKYAQKFQGWVTMTRDMSITTVYMELTRLRSDATAVFYCARGPLFHKLVYDSWTGYHDGFDIWGQGTMVTVSS VL: QSALTQPASVSGSPGQSITISCTGTSSDVGGYNYVSWYQHYPGKAPKLMIYEVTHRPSGVSNRFSGSKSGNTASLTISGLQAEDEADYYCSSSTNSSTWVFGGGTKMTVL , what is its reported EC50? 1.88

Which EC50 value is on record for C069 (antibody, V domains shown) VH: QVQLVQSGAEVKKPGSSVNVSCKASGGTFSTYAIHWVRQAPGQGLEWMGGIIPLFHTANYAQKFQGRVTITADESTSTAYMELSSLRSEDTAMYYCAINTQWDLVPRWGRGTLVTVSS VL: EIVLTQSPGTLSLAPGERATLSCRASQSVNSNYLAWYQQKPGQAPRLLIYGASSRATGIPDRFSGSGSGTDFTLTISRLEPEDFAVYYCQQYGFSLYSFGQGTKLEIK ? 381

Recorded EC50 for C094 (antibody, V domains shown) VH: QVQLQESGPGLVKPSETLSLTCNVSGVSISTDYWSWIRQPPGKGLEWIGYIYYSGNTKDYNPSLKSRVTISVDTSKNQFSLMLSSVTAADTAVYYCARHYDILTSLSWFDPWGQGTLVTVSS VL: QSVLTQPPSVSAAPGQKVTISCSITNSNLGNIYVSWYQQLPGTAPKLLIYGNNKRPSGIPDRFSGSKSGTSATLGITGLQTGDEAHYYCGTWDSSLSANWVFGGGTKLTVL , please? 1.67

Okay, now this binder:
Could you share which EC50 value was measured for C085 (antibody, V domains shown) VH: QVQLQESGPGLVKPSETLSLTCTVSGDSMSSYFWTWIRQPPGKGLECIGYFYPSGSTNYNPSLKSRVTISIDTSKNQFSLKLSSVTAADTAVYYCARLKQQLVGFGWFDPWGQGTLVTVSS VL: QSVLTQPPSVSGAPGQRVTISCTGSSSNIGADYDVHWYQQFPGTAPKVLIYANTNRPSGVPERFSGSKSGTSASLAITGLQAEDEADYYCQSYDHSLNWVFGGGTKLTVL ? 2.38
